assayed_system: human KHK-C (Homo sapiens (Human), UniProt P50053)
Sequence (P50053 whole entry): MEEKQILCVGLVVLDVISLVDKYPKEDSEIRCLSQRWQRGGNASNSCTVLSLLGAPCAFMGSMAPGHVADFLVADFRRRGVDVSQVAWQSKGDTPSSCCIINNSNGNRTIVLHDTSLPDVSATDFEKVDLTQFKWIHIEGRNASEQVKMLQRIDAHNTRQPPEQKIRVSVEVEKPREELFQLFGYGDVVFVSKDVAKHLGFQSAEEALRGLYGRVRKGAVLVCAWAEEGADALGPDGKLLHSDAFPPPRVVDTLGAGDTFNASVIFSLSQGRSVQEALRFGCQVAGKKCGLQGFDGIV
procedure_summary: KHK Biochemical Assay (IC50), ADP-Glo, KHK-C
condition_summary: ADP-Glo; average of at least two separate assays
Each entry below lists one item and its recorded IC50 value.

Answered examples (6):
INSERT INTO assay_data (compound, observed_result) VALUES
  ('C[C@H]1CCN1c1nc2c(c(-c3cccc(C(C)(C)N)c3)n1)CCC2 [Example 190]', '40.8 nM'),
  ('C[C@H]1CCN1c1nc2c(c(-c3cccc(N)c3)n1)CCC2 [Example 71]', '104 nM'),
  ('C[C@H]1CCN1c1nc2c(c(-c3ccc(C(N)=O)c4ccccc34)n1)CCC2 [Example 144]', '2400 nM'),
  ('C[C@H]1CCN1c1nc2c(c(-c3cccc(C4CC4C(=O)O)c3)n1)CCC2 (some centres unmarked) [Example 46]', '7.6 nM'),
  ('C[C@H]1CCN1c1nc2c(c(-c3ccc(C4(NC(=O)OC(C)(C)C)CC4)cc3)n1)CCC2 [Example 294]', '3400 nM'),
  ('C[C@H]1[C@H](O)CN1c1nc(-c2ccc3c(c2)CCNC3C(F)F)c2c(n1)C(F)(F)CC2 (some centres unmarked) [Example 835]', '7.5 nM');

# compound C[C@@H]1COc2cc(-c3nc(N4C[C@@H](O)[C@@H]4C)nc4c3CCC4(F)F)ccc2C(=O)N1 [Example 180] ; its IC50 = 27.4 nM

# compound C[C@]1(O)CCN(c2nc3c(c(-c4ccc(C(N)=O)cc4)n2)CCC3)C1 [Example 268] ; its IC50 = > 5000 nM
